Sourced from the supplement of paper PMC10065799

System: c-Abl (mouse)
assay.text: phosphorylation enrichment, bacterial display (enrichment ratio); higher = better substrate or ligand; peptides without Tyr show the background
So I've got a bunch of sequences here, and I need their phosphorylation enrichment values.

Req: Provide the reported phosphorylation enrichment (system: c-Abl (mouse)) for MGRVKYGAFIN [GLB1_Y485_N484K_YF]
Resp: 0.532

Req: Report phosphorylation enrichment from c-Abl (mouse) testing of RGEKQYLAAPL [ALOX12_Y295]
Resp: 0.504

Req: Give phosphorylation enrichment; test system c-Abl (mouse); sequence TSGVVYKARNK [CDK2_Y19_Y15S]
Resp: 0.51

Req: Provide measured phosphorylation enrichment on c-Abl (mouse) for AIGYEYSEINI [SIGLEC12_Y588] please.
Resp: 0.9

Req: State phosphorylation enrichment on c-Abl (mouse). Entry: KSMSVYCTPNK [ATP2A2_Y497]
Resp: 1.38

Req: Given SVTCTYSPAIN [TP53_Y126_L130I] , report its phosphorylation enrichment on c-Abl (mouse).
Resp: 1.08

Req: Fill in phosphorylation enrichment for FVSLIYTNFEA [GSTP1_Y109_I105V_YF] tested with c-Abl (mouse).
Resp: 2.22

Req: Lab note: record phosphorylation enrichment of YGEYRYRSVIK [CFTR_Y517_D513G] tested on c-Abl (mouse).
Resp: 0.745

Req: Report its phosphorylation enrichment with c-Abl (mouse) as the test system: AVLSLCASGRT [ACTA2_Y145_Y145C]
Resp: 0.606

Req: # lookup: c-Abl (mouse) phosphorylation enrichment, key = TIQMMYGCDVG [HLA-A_Y123_I121M]
Resp: 0.822

Req: // output phosphorylation enrichment; input RHPEVYHHLGI [NVL_Y290_V295I] ; system c-Abl (mouse)
Resp: 0.731

Req: Consider the sequence LTERGYSFVTT [ACTA1_Y200] tested on c-Abl (mouse); state its phosphorylation enrichment.
Resp: 0.941

Req: # assay system c-Abl (mouse): give phosphorylation enrichment of LFDPDFMKVIL [CYP4A22_Y104_Y104F_YF]
Resp: 2.1

Req: State, for c-Abl (mouse), measured phosphorylation enrichment of the sequence listed here: PMFTKYGNGLL [RPGRIP1L_Y196_S199G]
Resp: 1.31

Req: Recall the reported phosphorylation enrichment of LERFIYNRQEF [HLA-DPB1_Y59_E62Q_YF] when tested on c-Abl (mouse).
Resp: 0.464

Req: Find the measured phosphorylation enrichment of VDLIVYLRTNP [TK2_Y181] with c-Abl (mouse) as test system.
Resp: 0.875

Req: Supply phosphorylation enrichment measured with c-Abl (mouse) for LHVGFYESDVM [A2M_Y708_R704H] .
Resp: 0.761

Req: Lab note: record phosphorylation enrichment of LLANAYIYVVQ [L1CAM_Y418] tested on c-Abl (mouse).
Resp: 0.983

Req: Look up and report phosphorylation enrichment, with c-Abl (mouse) as system, for VCDSDYSASRW [LRP5_Y1552]
Resp: 0.737

Req: Jot down phosphorylation enrichment (c-Abl (mouse)) of FSKTQYNQVPS [CXADR_Y318_YF] .
Resp: 0.892

Req: Name the value of phosphorylation enrichment reported for YYSSEYHCVGG [CTSC_Y345_Y347C] when tested on c-Abl (mouse).
Resp: 6.69

Req: Give phosphorylation enrichment only, for GKSHIYFWTLD [EML2_Y230_E235D] , using c-Abl (mouse) data.
Resp: 0.847

Req: Report value: phosphorylation enrichment, system: c-Abl (mouse), sequence: CTTIHYNFMRN [TP53_Y234_C238R_YF]
Resp: 0.767

Req: System c-Abl (mouse). Read-out phosphorylation enrichment. Item DAMQTYNGNDE [TSPAN7_Y131] . Report value.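 Further: frequency after pTyr selection over input frequency; kinase dosed for 20-30% of maximal phosphorylation in three min.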
Resp: 0.653

Req: State measured phosphorylation enrichment of the sequence TFRPPYYHRNC [HGD_Y333] with c-Abl (mouse).
Resp: 0.599

Req: Return reported phosphorylation enrichment for target or system c-Abl (mouse), item KNEVLYDEENH [ARFGEF1_Y314_G316E] .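 Further: frequency after pTyr selection over input frequency; kinase dosed for 20-30% of maximal phosphorylation in three min.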
Resp: 0.997

Req: GET phosphorylation enrichment where system = c-Abl (mouse) and item = RVLKLYGCSPS [ASTL_Y279];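 further: frequency after pTyr selection over input frequency; kinase dosed for 20-30% of maximal phosphorylation in three min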
Resp: 0.719

Req: Enter phosphorylation enrichment (test system c-Abl (mouse)) for FFHCTYKKRMI [CLEC12A_Y242_YF];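 further: 11-residue human phosphosite peptides and single-mutation variants displayed on the E. coli surface, counted by deep sequencing, each peptide's frequency after selection divided by its frequency in the unselected input library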;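 further: frequency after pTyr selection over input frequency; kinase dosed for 20-30% of maximal phosphorylation in three min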
Resp: 0.532

Req: State phosphorylation enrichment on c-Abl (mouse). Entry: SLLKDYSPQLQ [OTC_Y345_T343K]
Resp: 0.59
